Here's what we have: Ki numbers for muscarinic receptors (3H-QNB sites, cerebellum, mainly M2) (Rattus norvegicus).
State the value, then name its unit.

* C[C@H]1O[C@@]2(CN3CCC2CC3)CS1(=O)=O (relative stereo) | 44.1 µM
* CC1OCC2(CN3CCC2CC3)S1 (stereo not drawn) [compound 11] | 19.8 µM

Okay, next one:
Item CC1OCC2(CN3CCC2CC3)S1 (stereo not drawn) [compound 8] has what recorded Ki? 21.1 µM

----------
Molecular target: M1 muscarinic receptors (3H-PZ sites, frontal cortex) (Rattus norvegicus)
Sequence (P08482 1-460): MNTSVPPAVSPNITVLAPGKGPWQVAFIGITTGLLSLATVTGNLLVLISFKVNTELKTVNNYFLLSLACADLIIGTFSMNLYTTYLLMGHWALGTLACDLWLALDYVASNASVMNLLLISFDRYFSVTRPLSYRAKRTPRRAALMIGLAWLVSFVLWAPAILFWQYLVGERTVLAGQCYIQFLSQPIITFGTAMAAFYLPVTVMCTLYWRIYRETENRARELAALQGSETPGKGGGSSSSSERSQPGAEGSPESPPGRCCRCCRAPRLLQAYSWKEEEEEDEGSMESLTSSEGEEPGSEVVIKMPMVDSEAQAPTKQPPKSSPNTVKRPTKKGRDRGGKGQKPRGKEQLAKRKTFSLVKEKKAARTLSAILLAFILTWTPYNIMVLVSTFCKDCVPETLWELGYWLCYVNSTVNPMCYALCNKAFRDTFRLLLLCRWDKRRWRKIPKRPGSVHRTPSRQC
Assay: Displacement of 3H-PZ from rat frontal cortex homogenate
Type: binding
Conditions: (a') frontal cortex; read-out: Ki(3H-PZ)
Hi all, reminder that labels come from Ki, split as Low = under 1000 nM, Mid = from 1000 nM up to 5000 nM, High = 5000 nM and over

• CC1OCC2(CN3CCC2CC3)S1 (single isomer, unassigned) [compound 9] = High
• C[C@H]1O[C@]2(CS1)CN1CCC2CC1 (single isomer, unassigned) [Compound #5] = Low

Which category fits this record: C[C@H]1O[C@@]2(CN3CCC2CC3)CS1(=O)=O (relative stereo) High

Now the same for CC1OCC2(CN3CCC2CC3)S1 (single isomer, unassigned) [compound 10] High

Now the same for C[C@H]1O[C@]2(CS1)CN1CCC2CC1 (relative stereo) [compound 4] Low

Now the same for C[C@H]1O[C@]2(CS1)CN1CCC2CC1 (single isomer, unassigned) [compound 6] Mid

Now the same for CC1OCC2(CN3CCC2CC3)S1 (single isomer, unassigned) [compound 13] Mid

Now the same for CC1OCC2(CN3CCC2CC3)S1 (stereo not shown) [compound 11] Low

Now the same for CC1OCC2(CN3CCC2CC3)S1 (single isomer, unassigned) [compound 12] Low

Now the same for CC1OCC2(CN3CCC2CC3)S1 (stereo not shown) [compound 8] Mid

----------
Molecular target: M1 muscarinic receptors (3H-PZ sites, forebrain) (Rattus norvegicus)
Sequence (P08482 1-460): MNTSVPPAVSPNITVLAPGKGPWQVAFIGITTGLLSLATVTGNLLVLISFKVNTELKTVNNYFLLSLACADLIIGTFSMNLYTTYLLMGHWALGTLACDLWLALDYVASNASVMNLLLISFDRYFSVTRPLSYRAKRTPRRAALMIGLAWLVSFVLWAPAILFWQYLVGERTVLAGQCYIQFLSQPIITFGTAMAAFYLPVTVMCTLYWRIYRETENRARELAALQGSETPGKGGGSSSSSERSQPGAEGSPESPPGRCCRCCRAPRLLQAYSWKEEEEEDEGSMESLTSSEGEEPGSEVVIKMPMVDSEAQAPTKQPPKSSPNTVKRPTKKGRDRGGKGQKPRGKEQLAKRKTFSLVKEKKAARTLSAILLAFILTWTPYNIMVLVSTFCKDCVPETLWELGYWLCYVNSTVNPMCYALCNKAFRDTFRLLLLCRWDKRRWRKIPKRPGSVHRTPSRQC
Test: Displacement of 3H-Pirenzepine (3H-PZ, selective M1 antagonist) from rat forebrain homogenate
Type: binding
Threshold 0.2. a:b, Ki(3H-PZ):Ki(3H-QNB) below it: criterion met. a:b, Ki(3H-PZ):Ki(3H-QNB) at it or above: criterion not met.

Reference set, count: 3
• C[C@@H]1O[C@]2(CS1)CN1CCC2CC1 (relative stereo) = criterion not met
• C[C@H]1O[C@]2(CS1)CN1CCC2CC1 (relative stereo) [compound 4] = criterion met
• C[C@H]1O[C@]2(CS1)CN1CCC2CC1 (single isomer, unassigned) [Compound #5] = criterion not met

Lab note: a:b, Ki(3H-PZ):Ki(3H-QNB) threshold 0.2. Does this molecule come in strictly under it? CC1OCC2(CN3CCC2CC3)S1 (centres unmarked) criterion met
